Data origin: patent US20260257998A1

biological target: ERRγ (Homo sapiens, UniProt P62508); experiment: ERRE luciferase reporter assay in HEK293 cells transfected with pcDNA3.1 ERRγ; conditions: 24 hours treatment, luciferase activity
Sequence (P62508 whole entry): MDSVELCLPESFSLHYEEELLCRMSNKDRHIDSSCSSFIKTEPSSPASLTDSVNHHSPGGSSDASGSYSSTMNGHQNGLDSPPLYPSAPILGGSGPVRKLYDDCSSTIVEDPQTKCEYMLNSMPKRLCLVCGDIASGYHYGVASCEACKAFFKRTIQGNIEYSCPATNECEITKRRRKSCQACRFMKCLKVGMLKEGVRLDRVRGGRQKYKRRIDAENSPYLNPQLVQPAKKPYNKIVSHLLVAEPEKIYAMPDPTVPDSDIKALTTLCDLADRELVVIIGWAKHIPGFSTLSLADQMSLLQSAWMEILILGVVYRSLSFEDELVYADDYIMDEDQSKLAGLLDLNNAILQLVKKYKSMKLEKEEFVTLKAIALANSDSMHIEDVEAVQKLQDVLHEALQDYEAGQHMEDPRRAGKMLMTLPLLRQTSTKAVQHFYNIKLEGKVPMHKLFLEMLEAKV
pEC50: −log10 of the molar value.

{"MOLECULE": "Oc1ccc(C2CC(c3ccc(Br)cc3)=NN2)cc1 (centres unmarked) [Entry 80]", "pEC50": "5.30 to 6.00"}
{"MOLECULE": "Oc1c(Cl)cccc1C1CC(c2ccc(Br)cc2)=NN1 (centres unmarked) [Entry 45]", "pEC50": "5.30 to 6.00"}
{"MOLECULE": "Oc1ccc(C2CC(c3ccc(Cl)cc3)=NN2)cc1 (centres unmarked) [Entry 7]", "pEC50": "< 5.30"}
{"MOLECULE": "Oc1ccccc1C1=NNC(c2ccc(Cl)cc2)C1 (centres unmarked) [Entry 66]", "pEC50": "> 6.00"}
{"MOLECULE": "Oc1cccc(C2CC(c3ccccc3F)=NN2)c1 (centres unmarked) [Entry 90]", "pEC50": "5.30 to 6.00"}
{"MOLECULE": "Oc1c(Br)cccc1C1CC(c2ccc(Br)cc2)=NN1 (centres unmarked) [Entry 35]", "pEC50": "5.30 to 6.00"}
{"MOLECULE": "Oc1cccc(C2CC(c3ccc(Br)cc3)=NN2)c1 (centres unmarked) [Entry 79]", "pEC50": "5.30 to 6.00"}
{"MOLECULE": "Oc1cccc(C2=NNC(c3ccccc3O)C2)c1 (centres unmarked) [Entry 96]", "pEC50": "< 5.30"}
{"MOLECULE": "Oc1ccccc1C1=NNC(c2ncc[nH]2)C1 (centres unmarked) [Entry 92]", "pEC50": "5.30 to 6.00"}
{"MOLECULE": "Oc1ccccc1C1=NNC(c2ccc3ccccc3c2)C1 (centres unmarked) [Entry 21]", "pEC50": "> 6.00"}
{"MOLECULE": "Oc1ccccc1C1CC(c2ccc(OC(F)(F)F)cc2)=NN1 (centres unmarked) [Entry 41]", "pEC50": "> 6.00"}
